Source listed as ChEMBL document CHEMBL3085661.

biological target: Thymidine phosphorylase (Escherichia coli K-12, UniProt P07650); test: Inhibition of Escherichia coli recombinant thymidine phosphorylase using thymidine as substrate after 4 to 20 mins by UV spectrophotometry
Sequence (P07650 whole entry): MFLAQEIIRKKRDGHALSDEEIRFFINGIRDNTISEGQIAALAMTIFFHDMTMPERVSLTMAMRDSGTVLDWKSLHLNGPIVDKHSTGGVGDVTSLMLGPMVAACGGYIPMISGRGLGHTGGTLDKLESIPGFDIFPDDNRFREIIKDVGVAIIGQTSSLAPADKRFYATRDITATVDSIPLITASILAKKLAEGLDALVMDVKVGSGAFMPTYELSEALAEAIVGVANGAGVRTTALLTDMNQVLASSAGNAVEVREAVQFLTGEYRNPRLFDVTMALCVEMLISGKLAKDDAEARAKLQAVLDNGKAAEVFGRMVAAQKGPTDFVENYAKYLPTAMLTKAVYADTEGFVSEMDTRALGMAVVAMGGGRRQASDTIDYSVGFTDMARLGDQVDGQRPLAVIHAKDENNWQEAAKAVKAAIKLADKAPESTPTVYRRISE
Where a name gives a salt, the structure may show the parent alone.
quantity kind: IC50 (µM)

- molecule: "O=c1[nH]c(CSc2nc3cc(-c4ccc(Br)cc4)nn3c(=O)[nH]2)c(Cl)c(=O)[nH]1"
  target: "Thymidine phosphorylase (Escherichia coli K-12, UniProt P07650)"
  units text: "µM"
  observed value: 6.2
- molecule: "N=C1CCCN1Cc1[nH]c(=O)[nH]c(=O)c1Cl [TIPIRACIL HYDROCHLORIDE]"
  target: "Thymidine phosphorylase (Escherichia coli K-12, UniProt P07650)"
  units text: "µM"
  observed value: 0.0027
- molecule: "CC(C)(C)c1ccc(-c2cc3nc(SCc4[nH]c(=O)[nH]c(=O)c4Cl)[nH]c(=O)n3n2)cc1"
  target: "Thymidine phosphorylase (Escherichia coli K-12, UniProt P07650)"
  units text: "µM"
  observed value: 1.5

P. O=c1[nH]c(CSc2nc3c(-c4ccc(F)cc4)cnn3c(=O)[nH]2)c(Cl)c(=O)[nH]1
Q. N#Cc1cnn2c(=O)[nH]c(SCc3[nH]c(=O)[nH]c(=O)c3Cl)nc12
// query Identify the entry with the larger IC50. Options: P and Q Please respond with the label that marks your chosen entry.
// result Q
(Q: 38.8 µM, P: 8 µM)

###

assay: Cytotoxicity against human MDA-MB-231 cells assessed as cell viability at 100 uM by MTT assay relative to control; format: cell-based; conditions: read-out: Activity
quantity kind: viability at 100 µM (%)
# number only, unit % dropped from output

// query Fill in reported viability at 100 µM for this entry: O=c1[nH]c(CSc2nc3c(-c4ccc(S(F)(F)(F)(F)F)cc4)cnn3c(=O)[nH]2)c(Cl)c(=O)[nH]1
// result 67

###

molecular target: Thymidine phosphorylase (Escherichia coli K-12); experiment: Noncompetitive inhibition of GST-tagged Escherichia coli recombinant thymidine phosphorylase expressed in Escherichia coli using thymidine as substrate after 20 to 60 mins by HPLC analysis
quantity kind: IC50 (µM)
Just the number please, in µM, no unit attached.

// query Look up and state reported IC50 for Oc1ncnc2c1ncn2[C@@H]1O[C@H](COC(c2ccccc2)(c2ccccc2)c2ccccc2)[C@@H](O)[C@H]1O
// result 44

###

target: UniProtKB P07650; experiment: Inhibition of Escherichia coli recombinant thymidine phosphorylase using thymidine as substrate after 4 to 20 mins by UV spectrophotometry
pIC50: −log10 of the molar value.
quantity kind: pIC50

- query smiles: "CC(C)(C)c1cc2nc(SCc3[nH]c(=O)[nH]c(=O)c3Cl)[nH]c(=O)n2n1"
  pIC50: 4.29
- query smiles: "O=c1[nH]c(CSc2nc3cc(-c4ccc(F)cc4)nn3c(=O)[nH]2)c(Cl)c(=O)[nH]1"
  pIC50: 4.65
- query smiles: "O=c1[nH]c(CSc2nc3c(-c4ccc(Br)cc4)cnn3c(=O)[nH]2)c(Cl)c(=O)[nH]1"
  pIC50: 5.92
- query smiles: "Cc1ccc(-c2cc3nc(SCc4[nH]c(=O)[nH]c(=O)c4Cl)[nH]c(=O)n3n2)cc1"
  pIC50: 5.01

1. O=c1[nH]c(CSc2nc3c(I)cnn3c(=O)[nH]2)c(Cl)c(=O)[nH]1
2. O=c1[nH]c(CSc2nc3c(-c4ccccc4)cnn3c(=O)[nH]2)c(Cl)c(=O)[nH]1
3. O=c1[nH]c(CSc2nc3c(-c4ccc(Cl)cc4)cnn3c(=O)[nH]2)c(Cl)c(=O)[nH]1
4. CCOc1ccc(-c2cc3[nH]c(=S)[nH]c(=O)n3n2)cc1
5. O=c1[nH]c(CSc2nc3ccnn3c(=O)[nH]2)c(Cl)c(=O)[nH]1
// query Write the entries in order, lowest recorded pIC50 first. Sort the labels as requested; that list is your answer.
// result 5, 1, 2, 4, 3

1. O=c1[nH]c(CSc2nc3cc(C(F)(F)F)nn3c(=O)[nH]2)c(Cl)c(=O)[nH]1
2. O=c1[nH]c(CSc2nc3cc(-c4ccccc4)nn3c(=O)[nH]2)c(Cl)c(=O)[nH]1
// query Smaller pIC50 value? Options are 1 and 2 Returns: label corresponding to the selected item.
// result 1

1. Cc1ccc(-c2cnn3c(=O)[nH]c(SCc4[nH]c(=O)[nH]c(=O)c4Cl)nc23)cc1
2. CCOc1ccc(-c2cnn3c(=O)[nH]c(SCc4[nH]c(=O)[nH]c(=O)c4Cl)nc23)cc1
// query // returns 1 or 2 , whichever has the lower pIC50 Could you answer with the label of the item you picked?
// result 2
(2: 4.92, 1: 5.14)

###

molecular target: Thymidine phosphorylase (Escherichia coli K-12); assay: Inhibition of Escherichia coli recombinant thymidine phosphorylase using thymidine as substrate after 4 to 20 mins by UV spectrophotometry
pIC50: −log10 of the molar value.
quantity kind: pIC50

- query smiles: "Cc1cnn2c(=O)[nH]c(SCc3[nH]c(=O)[nH]c(=O)c3Cl)nc12"
  quantity kind: "pIC50"
  observed value: 4.45

I. O=c1[nH]c(CSc2nc3c(Br)cnn3c(=O)[nH]2)c(Cl)c(=O)[nH]1
II. COc1ccc(-c2cnn3c(=O)[nH]c(SCc4[nH]c(=O)[nH]c(=O)c4Cl)nc23)cc1
III. O=c1[nH]c(CSc2nc3c(-c4ccc(S(F)(F)(F)(F)F)cc4)cnn3c(=O)[nH]2)c(Cl)c(=O)[nH]1
// query In this exercise, place the 3 compounds in ascending sequence of their recorded pIC50. Reply with the item labels sorted in the order that was asked for.
// result I, II, III
(I: 4.40, II: 4.67, III: 6.44)

###

biological target: UniProt P07650; experiment: Inhibition of Escherichia coli recombinant thymidine phosphorylase using thymidine as substrate after 4 to 20 mins by UV spectrophotometry
pIC50: −log10 of the molar value.
quantity kind: pIC50

Completed entries (count: 8):
- query smiles: "O=c1[nH]c(CSc2nc3cc(-c4ccc(Cl)cc4)nn3c(=O)[nH]2)c(Cl)c(=O)[nH]1"
  pIC50: 4.99
- query smiles: "O=c1[nH]c(CSc2nc3cc(-c4ccc(C(F)(F)F)cc4)nn3c(=O)[nH]2)c(Cl)c(=O)[nH]1"
  pIC50: 5.68
- query smiles: "CC(C)(C)c1ccc(-c2cnn3c(=O)[nH]c(SCc4[nH]c(=O)[nH]c(=O)c4Cl)nc23)cc1"
  pIC50: 5.74
- query smiles: "COc1ccc(-c2cc3nc(SCc4[nH]c(=O)[nH]c(=O)c4Cl)[nH]c(=O)n3n2)cc1"
  pIC50: 4.93
- query smiles: "O=c1[nH]c(CSc2nc3c(-c4ccc(C(F)(F)F)cc4)cnn3c(=O)[nH]2)c(Cl)c(=O)[nH]1"
  pIC50: 5.89
- query smiles: "O=c1[nH]c(CSc2nc3c(-c4ccc(I)cc4)cnn3c(=O)[nH]2)c(Cl)c(=O)[nH]1"
  pIC50: 6.21
- query smiles: "CCOC(=O)c1cnn2c(=O)[nH]c(SCc3[nH]c(=O)[nH]c(=O)c3Cl)nc12"
  pIC50: 4.33
- query smiles: "O=c1[nH]c(CSc2nc3c(Cl)cnn3c(=O)[nH]2)c(Cl)c(=O)[nH]1"
  pIC50: 4.30

P. Cc1cc2nc(SCc3[nH]c(=O)[nH]c(=O)c3Cl)[nH]c(=O)n2n1
Q. CCOc1ccc(-c2cc3nc(SCc4[nH]c(=O)[nH]c(=O)c4Cl)[nH]c(=O)n3n2)cc1
// query Short answer wanted: higher pIC50, P or Q ? // caller expects the label of the chosen entry
// result Q
